Target of assay: PI3K (Homo sapiens, UniProt P42336)
Sequence (P42336 whole entry): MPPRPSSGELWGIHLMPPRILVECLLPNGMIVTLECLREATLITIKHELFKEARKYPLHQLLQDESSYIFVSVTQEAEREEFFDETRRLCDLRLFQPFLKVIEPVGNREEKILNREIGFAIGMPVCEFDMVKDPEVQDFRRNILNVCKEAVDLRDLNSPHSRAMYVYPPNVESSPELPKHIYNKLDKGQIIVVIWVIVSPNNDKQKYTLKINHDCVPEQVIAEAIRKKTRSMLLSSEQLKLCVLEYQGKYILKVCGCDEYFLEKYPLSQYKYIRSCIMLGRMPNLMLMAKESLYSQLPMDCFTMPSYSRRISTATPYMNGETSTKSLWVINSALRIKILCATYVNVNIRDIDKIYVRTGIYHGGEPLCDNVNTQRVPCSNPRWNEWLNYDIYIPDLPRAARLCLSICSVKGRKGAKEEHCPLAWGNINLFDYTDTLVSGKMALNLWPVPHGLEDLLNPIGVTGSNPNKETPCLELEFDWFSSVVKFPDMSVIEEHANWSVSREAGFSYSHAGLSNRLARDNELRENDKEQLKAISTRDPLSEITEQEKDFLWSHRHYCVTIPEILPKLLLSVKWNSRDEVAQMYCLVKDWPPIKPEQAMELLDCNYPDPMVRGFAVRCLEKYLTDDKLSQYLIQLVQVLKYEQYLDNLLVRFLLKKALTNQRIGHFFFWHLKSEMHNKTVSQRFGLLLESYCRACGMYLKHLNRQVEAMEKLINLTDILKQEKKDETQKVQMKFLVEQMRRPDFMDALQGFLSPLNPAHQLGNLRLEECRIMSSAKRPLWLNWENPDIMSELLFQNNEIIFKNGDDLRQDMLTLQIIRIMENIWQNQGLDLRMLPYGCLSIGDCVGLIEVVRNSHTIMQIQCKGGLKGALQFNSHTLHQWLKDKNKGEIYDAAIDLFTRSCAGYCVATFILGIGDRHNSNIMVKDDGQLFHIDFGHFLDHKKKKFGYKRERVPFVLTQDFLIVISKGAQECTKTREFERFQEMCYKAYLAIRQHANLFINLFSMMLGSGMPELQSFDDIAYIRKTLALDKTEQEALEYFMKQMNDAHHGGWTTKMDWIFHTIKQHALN
Sequence (P27986 whole entry partner): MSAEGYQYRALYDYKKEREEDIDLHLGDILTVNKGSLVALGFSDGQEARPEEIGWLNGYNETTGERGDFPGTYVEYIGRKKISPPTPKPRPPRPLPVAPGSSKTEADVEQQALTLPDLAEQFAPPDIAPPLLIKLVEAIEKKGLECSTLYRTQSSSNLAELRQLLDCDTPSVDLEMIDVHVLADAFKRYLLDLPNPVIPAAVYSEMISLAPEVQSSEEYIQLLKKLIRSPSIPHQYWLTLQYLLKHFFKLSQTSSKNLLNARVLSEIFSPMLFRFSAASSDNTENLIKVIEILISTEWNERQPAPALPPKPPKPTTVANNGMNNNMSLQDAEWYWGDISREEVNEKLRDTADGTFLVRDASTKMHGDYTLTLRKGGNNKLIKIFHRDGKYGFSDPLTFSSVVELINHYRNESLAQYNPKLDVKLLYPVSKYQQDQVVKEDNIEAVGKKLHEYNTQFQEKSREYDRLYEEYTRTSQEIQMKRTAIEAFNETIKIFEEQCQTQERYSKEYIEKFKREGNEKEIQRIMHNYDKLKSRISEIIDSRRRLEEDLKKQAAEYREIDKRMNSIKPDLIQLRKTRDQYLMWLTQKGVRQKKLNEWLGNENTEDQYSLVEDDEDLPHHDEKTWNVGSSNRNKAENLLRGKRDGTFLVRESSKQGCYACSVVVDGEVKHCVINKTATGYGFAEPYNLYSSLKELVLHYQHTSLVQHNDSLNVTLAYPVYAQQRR
Test details: Fluorescence polarization assay for PI3K;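 further: PI3K kinase reaction on PIP2 with ATP, 30-60 min, product sensed by GST-GRP with red probe in fluorescence polarization (mP), controls without enzyme and at zero time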
Format: biochemical
Conditions: PI3Kα; read-out: PI3Kα IC50
For each entry below, report its log10(IC50) value.
# log10 transformed; quantity=IC50; unit=nM

Some solved cases for reference:
[
  {
    "Compound": "CNC(=O)Nc1ccc(-c2nc(N3CCOCC3)c3cnn(C4CCC5(CC4)OCCO5)c3n2)cc1 [Example 321]",
    "Target of assay": "PI3K (Homo sapiens, UniProt P42336)",
    "log10(IC50)": 1.87
  },
  {
    "Compound": "COC(=O)N1CCC(n2ncc3c(N4CCOCC4)nc(-c4ccc(NC(=O)Nc5ccc(F)nc5)cc4)nc32)CC1",
    "Target of assay": "PI3K (Homo sapiens, UniProt P42336)",
    "log10(IC50)": 2.03
  },
  {
    "Compound": "CCCOC(=O)N1CCC(n2ncc3c(N4CCOCC4)nc(-c4ccc(NC(=O)Nc5ccccc5)cc4)nc32)CC1",
    "Target of assay": "PI3K (Homo sapiens, UniProt P42336)",
    "log10(IC50)": 1.38
  },
  {
    "Compound": "CNC(=O)Nc1ccc(-c2nc(N3CCOCC3)c3cnn(C4CCN(CC(=O)c5ccccc5)CC4)c3n2)cc1 [Example 333]",
    "Target of assay": "PI3K (Homo sapiens, UniProt P42336)",
    "log10(IC50)": 1.36
  },
  {
    "Compound": "O=C(Cc1ccccc1)N1CCC(n2ncc3c(N4CCOCC4)nc(-c4ccc5[nH]ccc5c4)nc32)CC1 [Compound 492]",
    "Target of assay": "PI3K (Homo sapiens, UniProt P42336)",
    "log10(IC50)": 2.84
  }
]

I would be grateful if you could provide log10(IC50) for each of the following entries.
1. CC(C)OC(=O)N1CCC(n2ncc3c(N4CCOCC4)nc(-c4ccc(NC(=O)Nc5ccccn5)cc4)nc32)CC1
2. O=C(NO)Nc1ccc(-c2nc(N3CCOCC3)c3cnn(C4CCN(Cc5cccnc5)CC4)c3n2)cc1 [Compound 317]

[4.08, 2.41]

----------
For each entry below, report its IC50 value.
Tested on: breast line MDA468
Test details: In vitro cell culture growth assay (MTS), MDA468
Type: cell-based, human
Conditions: Homo sapiens, 72 h, MDA468 cells, three days after drug treatment
One number for each entry, in µM.

[
  {
    "Compound": "O=C(NCCO)Nc1ccc(-c2nc(N3CCOCC3)c3cnn(C4CCN(C(=O)c5cccnc5)CC4)c3n2)cc1 [Example 304]",
    "Target of assay": "breast line MDA468",
    "Parameter measured": "IC50",
    "Reported measurement": 9
  },
  {
    "Compound": "NNC(=O)Nc1ccc(-c2nc(N3CCOCC3)c3cnn(C4CCN(Cc5ccccc5)CC4)c3n2)cc1 [Example 309]",
    "Target of assay": "breast line MDA468",
    "Parameter measured": "IC50",
    "Reported measurement": 7.5
  },
  {
    "Compound": "O=C(Nc1ccc(-c2nc(N3CCOCC3)c3cnn(C4CCN(C(=O)c5cccnc5)CC4)c3n2)cc1)Nc1cccs1 [Compound 657]",
    "Target of assay": "breast line MDA468",
    "Parameter measured": "IC50",
    "Reported measurement": 0.04
  }
]

Kindly review the next compound as well.
Input O=C(c1ccc(Cl)cc1)N1CCC(n2ncc3c(N4CCOCC4)nc(-c4cccc(O)c4)nc32)CC1 [Compound 27] . Output IC50: 2.4

Numbers sourced from patent US20080234262A1.
